- experimental.target: BRaf (Homo sapiens, UniProt P15056)
- Construct: purchased ProQinase GmbH, Freiburg, Germany (33PanQinase Assay Service)
- Sequence (P15056 whole entry, species assumed): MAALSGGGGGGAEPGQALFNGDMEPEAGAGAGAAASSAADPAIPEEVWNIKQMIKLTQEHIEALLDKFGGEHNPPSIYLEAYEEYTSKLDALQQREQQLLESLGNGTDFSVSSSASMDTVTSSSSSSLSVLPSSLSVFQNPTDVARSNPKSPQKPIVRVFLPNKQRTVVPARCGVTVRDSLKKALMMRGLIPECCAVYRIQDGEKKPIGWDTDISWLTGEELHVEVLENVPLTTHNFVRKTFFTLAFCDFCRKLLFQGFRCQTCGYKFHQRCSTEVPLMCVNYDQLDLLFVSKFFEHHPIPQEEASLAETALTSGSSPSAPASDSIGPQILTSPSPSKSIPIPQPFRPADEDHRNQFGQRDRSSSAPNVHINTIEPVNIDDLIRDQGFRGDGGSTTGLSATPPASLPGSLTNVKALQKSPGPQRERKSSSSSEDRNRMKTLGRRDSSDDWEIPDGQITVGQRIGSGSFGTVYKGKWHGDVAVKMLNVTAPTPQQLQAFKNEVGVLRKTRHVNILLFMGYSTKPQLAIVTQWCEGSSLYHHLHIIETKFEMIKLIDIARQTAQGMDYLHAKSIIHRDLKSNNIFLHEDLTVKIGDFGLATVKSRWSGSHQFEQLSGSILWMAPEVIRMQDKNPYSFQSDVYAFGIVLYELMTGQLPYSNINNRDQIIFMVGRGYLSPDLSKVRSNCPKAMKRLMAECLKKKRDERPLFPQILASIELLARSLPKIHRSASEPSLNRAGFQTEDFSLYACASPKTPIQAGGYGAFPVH
- assay.method.text: KINOMEscan competition binding assay, BRaf
- test.context: ratio PoC (off-target)/PoC (MKK4)
- Method: The assay was performed by combining three components: DNA-tagged kinase; immobilized ligand; and a test compound. The ability of the test compound to compete with the immobilized ligand was measured via quantitative PCR of the DNA tag. […] For investigation of the affinity to MKK4, BRaf, MKK7 and JNK1, the kinases were produced in HEK-293 cells and subsequently tagged with DNA for qPCR detection. […] The kinase concentration in the eluates was measured by qPCR. […]
recorded.metric: selectivity based on % Ctrl @100 nM vs. Braf

Below, 5 compounds whose answers are already recorded.
compound | endpoint.result
CCCS(=O)(=O)Nc1ccc(F)c(C(=O)c2c[nH]c3ncc(-c4ccc(S(C)(=O)=O)nc4)cc23)c1F [Example 77] | ◯ (3 ≥ Ratio)
C#Cc1cnc2[nH]cc(C(=O)c3c(F)ccc(NS(=O)(=O)CCC)c3F)c2c1 [Example 18] | ◯ (3 ≥ Ratio)
CCCS(=O)(=O)Nc1ccc(C#N)c(C(=O)c2c[nH]c3ncc(-c4ccc(Cl)cc4)cc23)c1F [Example 61] | ◯ (3 ≥ Ratio)
CCCS(=O)(=O)Nc1cc(Br)cc(C(=O)c2c[nH]c3ncc(-c4ccc(Cl)cc4)cc23)c1 [Example 13] | ◯ (3 ≥ Ratio)
CCCS(=O)(=O)Nc1ccc(F)c(C(=O)c2c[nH]c3ncc(-c4c[nH]c(=O)cn4)cc23)c1F [Example 88] | + (10 ≥ ratio > 3)

Using the record for CCCS(=O)(=O)Nc1c(Cl)ccc(C(=O)c2c[nH]c3ncc(-c4ccc(Cl)cc4)cc23)c1F [Example 2d] , report its selectivity based on % Ctrl @100 nM vs. Braf.
+ (10 ≥ ratio > 3)

Another compound to look at: CCCS(=O)(=O)Nc1c(F)ccc(C(=O)c2c[nH]c3ncc(-c4ccc(NC)nc4)cc23)c1F [Example 160]
+++ (Ratio > 100)

Here is the next compound: Cc1cc(F)ncc1-c1cnc2[nH]cc(C(=O)c3ccc(F)c(NS(=O)(=O)CCC(F)(F)F)c3F)c2c1 [Example 157]
+++ (Ratio > 100)

And for CCCS(=O)(=O)Nc1ccc(F)c(C(=O)c2c[nH]c3ncc(-c4ccc(N)nc4)cc23)c1F [Example 50] ?
◯ (3 ≥ Ratio)

What about this compound? O=C(c1c(F)ccc(NS(=O)(=O)Cc2ccccc2)c1F)c1c[nH]c2ncc(-c3ccc(OCC(O)CO)cc3Cl)cc12 (centres unmarked) [Example 41]
++ (100 ≥ ratio > 10)

Proceed to COc1ccc(-c2cnc3[nH]cc(C(=O)c4ccc(F)c(NS(=O)(=O)CCC(F)(F)F)c4F)c3c2)cn1 [Example 158]
+++ (Ratio > 100)

Entry to check: CS(=O)(=O)Nc1c(F)ccc(C(=O)c2c[nH]c3ncc(-c4cccnc4)cc23)c1F [Example 228]
+++ (Ratio > 100)

Can you check CCCS(=O)(=O)Nc1ccc(F)c(C(=O)c2c[nH]c3ncc(-c4ccccc4F)cc23)c1F [Example 34] next?
++ (100 ≥ ratio > 10)

Queued: O=C(c1c(F)ccc(NS(=O)(=O)Cc2ccccc2)c1F)c1c[nH]c2ncc(-c3ccc(OCC(O)CO)cc3)cc12 (centres unmarked) [Example 40]
+++ (Ratio > 100)

Another compound to look at: CCCS(=O)(=O)Nc1ccc(F)c(C(=O)c2c[nH]c3ncc(-c4cccc(O)c4)cc23)c1F [Example 101]
◯ (3 ≥ Ratio)

* * *

- experimental.target: MKK7 (Homo sapiens)
- assay.method.text: KINOMEscan competition binding assay, MKK7
- Design: M1/R419; host or cells: HEK-293
- test.context: ratio PoC (off-target)/PoC (MKK4)
recorded.metric: selectivity based on % Ctrl @100 nM vs. MKK7

Check out these entries, answers already filled in.
smiles.text | endpoint.result
CCCS(=O)(=O)Nc1ccc(F)c(C(=O)c2c[nH]c3ncc(-c4ccccn4)cc23)c1F | ++ (100 ≥ ratio > 10)
CCCS(=O)(=O)Nc1c(F)ccc(C(=O)c2c[nH]c3ncc(-c4cnc(C(F)(F)F)nc4)cc23)c1F | +++ (Ratio > 100)
CCCS(=O)(=O)Nc1ccc(C#N)c(C(=O)c2c[nH]c3ncc(-c4ccc(Cl)cc4)cc23)c1F | + (10 ≥ ratio > 3)
CCCS(=O)(=O)Nc1ccc(F)c(C(=O)c2c[nH]c3ncc(-c4cccc(OC)c4)cc23)c1F | ++ (100 ≥ ratio > 10)
O=C(c1c(F)ccc(NS(=O)(=O)Cc2ccccc2)c1F)c1c[nH]c2ncc(-c3ccc(F)cc3)cc12 | ++ (100 ≥ ratio > 10)

Entry `Cc1cc(F)ncc1-c1cnc2[nH]cc(C(=O)c3ccc(F)c(NS(=O)(=O)CCC(F)(F)F)c3F)c2c1` has what selectivity based on % Ctrl @100 nM vs. MKK7?
+++ (Ratio > 100)

Let us now turn to `CCCS(=O)(=O)Nc1ccc(F)c(C(=O)c2c[nH]c3ncc(-c4ccccc4F)cc23)c1F`
++ (100 ≥ ratio > 10)

And what about the molecule `CCCS(=O)(=O)Nc1ccc(F)c(C(=O)c2c[nH]c3ncc(-c4ccc(C(N)=O)cc4)cc23)c1F` ?
+++ (Ratio > 100)

# iterate: `CCCS(=O)(=O)Nc1ccc(F)c(C(=O)c2c[nH]c3ncc(-c4cccnn4)cc23)c1F`
++ (100 ≥ ratio > 10)

Then what about the molecule `O=C(c1ccc(F)c(NS(=O)(=O)CCC(F)(F)F)c1F)c1c[nH]c2ncc(-c3cccnc3)cc12` ?
+++ (Ratio > 100)

Check `CCCS(=O)(=O)Nc1ccc(F)c(C(=O)c2c[nH]c3ncc(-c4ccc([N+](=O)[O-])cc4)cc23)c1F` too.
++ (100 ≥ ratio > 10)

Do the same for `CCCS(=O)(=O)Nc1ccc(F)c(C(=O)c2c[nH]c3ncc(-c4ccc5ccsc5c4)cc23)c1F` please
+ (10 ≥ ratio > 3)

What about this molecule? `C=Cc1ccc(-c2cnc3[nH]cc(C(=O)c4ccc(F)c(NS(=O)(=O)CCC)c4F)c3c2)cn1`
+++ (Ratio > 100)

Further, for `CCCS(=O)(=O)Nc1ccc(F)c(C(=O)c2c[nH]c3ncc(-c4ccccc4OC)cc23)c1F` ?
++ (100 ≥ ratio > 10)

Query `Cc1cc(F)ccc1-c1cnc2[nH]cc(C(=O)c3cccc(NS(=O)(=O)Cc4ccccc4)c3F)c2c1` next
++ (100 ≥ ratio > 10)

* * *

IC50 values, listed per item
- experimental.target: MKK4 (Homo sapiens)
- Sequence (P45985 whole entry): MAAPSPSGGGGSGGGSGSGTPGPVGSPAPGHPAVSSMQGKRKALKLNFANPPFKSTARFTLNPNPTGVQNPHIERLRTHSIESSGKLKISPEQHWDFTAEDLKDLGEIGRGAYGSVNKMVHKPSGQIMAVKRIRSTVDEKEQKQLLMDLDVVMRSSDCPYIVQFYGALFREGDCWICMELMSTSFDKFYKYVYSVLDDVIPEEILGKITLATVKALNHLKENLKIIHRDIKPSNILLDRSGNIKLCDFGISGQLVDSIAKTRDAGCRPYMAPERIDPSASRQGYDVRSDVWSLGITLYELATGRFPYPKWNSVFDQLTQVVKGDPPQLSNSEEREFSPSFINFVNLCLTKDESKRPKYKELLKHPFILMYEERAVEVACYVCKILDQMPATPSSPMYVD

smiles.text | endpoint.result
C#Cc1ncc(-c2cnc3[nH]cc(C(=O)c4ccc(F)c(NS(=O)(=O)CCC)c4F)c3c2)cn1 | < 100 nM
CCCS(=O)(=O)Nc1ccc(F)c(C(=O)c2c[nH]c3ncc(-c4ccnnc4)cc23)c1F | 1000 to 10000 nM
CCCS(=O)(=O)Nc1ccc(F)c(C(=O)c2c[nH]c3ncc(C4=CCNCC4)cc23)c1F | > 10000 nM
O=C(c1ccc(F)c(NS(=O)(=O)CCC(F)(F)F)c1F)c1c[nH]c2ncc(-c3cnc(C(F)(F)F)nc3)cc12 | < 100 nM
CCCS(=O)(=O)Nc1ccc(F)c(C(=O)c2c[nH]c3ncc(-c4c[nH]c(=O)cn4)cc23)c1F | 100 to 1000 nM
CCCS(=O)(=O)Nc1ccc(F)c(C(=O)c2c[nH]c3ncc(-c4ccc(C(F)(F)F)cc4)cc23)c1F | 100 to 1000 nM

Could you tell me which IC50 is on file for `COc1ccc(-c2cnc3[nH]cc(C(=O)c4cccc(NS(=O)(=O)Cc5ccccc5)c4F)c3c2)c(Cl)c1` ?
100 to 1000 nM

* * *

- experimental.target: MKK7 (Homo sapiens, UniProt O14733)
- Sequence (O14733 whole entry): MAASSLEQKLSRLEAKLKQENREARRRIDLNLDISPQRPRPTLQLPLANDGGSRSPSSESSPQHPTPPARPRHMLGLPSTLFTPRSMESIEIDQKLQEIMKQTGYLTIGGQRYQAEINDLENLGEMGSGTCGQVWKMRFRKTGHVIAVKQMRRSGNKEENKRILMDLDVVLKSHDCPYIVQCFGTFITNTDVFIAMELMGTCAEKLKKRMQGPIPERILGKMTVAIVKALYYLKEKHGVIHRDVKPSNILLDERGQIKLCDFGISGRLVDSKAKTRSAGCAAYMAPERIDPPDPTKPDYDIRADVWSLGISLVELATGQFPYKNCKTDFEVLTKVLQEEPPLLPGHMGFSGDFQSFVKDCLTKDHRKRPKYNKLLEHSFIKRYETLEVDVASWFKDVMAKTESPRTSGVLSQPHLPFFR
- assay.method.text: KINOMEscan competition binding assay, MKK7
- Parameters: M1/R419; host or cells: HEK-293
- test.context: ratio PoC (off-target)/PoC (MKK4)
recorded.metric: selectivity based on % Ctrl @100 nM vs. MKK7

compound | endpoint.result
CCCS(=O)(=O)Nc1c(Cl)ccc(C(=O)c2c[nH]c3ncc(-c4ccc(Cl)cc4)cc23)c1F | + (10 ≥ ratio > 3)
O=C(c1ccc(F)c(NS(=O)(=O)CCC(F)(F)F)c1F)c1c[nH]c2ncc(-c3cnc(N4CCCCC4)nc3)cc12 | +++ (Ratio > 100)
CCCS(=O)(=O)Nc1ccc(F)c(C(=O)c2c[nH]c3ncc(-c4ccc(OCC(O)CO)cc4Cl)cc23)c1F (stereo not shown) | +++ (Ratio > 100)
CCCS(=O)(=O)Nc1ccc(F)c(C(=O)c2c[nH]c3ncc(C4=CCNCC4)cc23)c1F | + (10 ≥ ratio > 3)
CS(=O)(=O)Nc1c(F)ccc(C(=O)c2c[nH]c3ncc(-c4ccncc4)cc23)c1F | +++ (Ratio > 100)

Short answer please: selectivity based on % Ctrl @100 nM vs. MKK7, MKK7 (Homo sapiens, UniProt O14733), entry `CCCS(=O)(=O)Nc1ccc(F)c(C(=O)c2c[nH]c3ncc(-c4ccc(C(=O)O)cc4)cc23)c1F`
+++ (Ratio > 100)
